system: human prostate cancer cells (PC3); assay: Cytotoxicity by SRB assay, PC3 cells; format: cell-based; conditions: Homo sapiens, PC-3, 72 h, mean±SD
READOUT_NAME: pIC50
Give bare numbers, as −log10 of the molar value.

Using the record for COc1cccc2c1C(=O)c1c(O)c3c(c(O)c1C2=O)C[C@@](O)(C(=O)CO)C[C@@H]3O[C@H]1C[C@H](N)[C@H](O)[C@H](C)O1 [DOX, Doxorubicin, reference compound] , report its pIC50.
5.12

###

tested on: human prostate cancer cells (PC3); assay: Cytotoxicity by SRB assay, PC3 cells; format: cell-based; conditions: PC-3, 72 h, mean±SD
READOUT_NAME: pIC50
One number for each entry, as −log10 of the molar value.

Bench note: what pIC50 did "N/C(Cc1nc2ccccc2s1)=N\OC(=O)c1ccccc1Cl" show?
5.57
